Data origin, for the record: patent US20150197564A1

# System Tested: T1, bovine LPL (bovine, UniProt P11151 29-478, limits assumed)
# T1 sequence (looked up): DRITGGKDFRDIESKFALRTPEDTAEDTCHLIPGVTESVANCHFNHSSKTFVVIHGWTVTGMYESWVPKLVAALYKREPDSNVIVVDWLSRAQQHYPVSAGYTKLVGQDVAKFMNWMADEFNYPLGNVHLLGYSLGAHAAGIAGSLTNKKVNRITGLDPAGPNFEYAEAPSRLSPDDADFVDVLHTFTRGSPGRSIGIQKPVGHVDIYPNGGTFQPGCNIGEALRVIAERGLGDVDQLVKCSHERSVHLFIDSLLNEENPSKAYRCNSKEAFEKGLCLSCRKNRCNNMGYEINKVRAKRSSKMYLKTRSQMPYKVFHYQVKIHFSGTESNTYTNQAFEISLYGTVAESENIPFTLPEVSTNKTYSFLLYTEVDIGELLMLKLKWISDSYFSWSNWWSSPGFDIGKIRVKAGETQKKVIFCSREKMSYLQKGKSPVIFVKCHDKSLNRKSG
# Procedure Summary: cell-based or functional assay
API: label(entry) gives 1 if the entry's EC50 (nM), inhibition of LPL activity is strictly smaller than 90 nM; on equality or larger values it gives 0.

Binder	Label Value
MfANGPTL3(17-170)-mmH (other) SRIDQDNSSFDSVSPEPKSRFAMLDDVKILANGLLQLGHGLKDFVHKTKGQINDIFQKLNIFDQSFYDLSLQTSEIKEEEKELRRTTYKLQVKNEEVKNMSLELNSKLESLLEEKILLQQKVKYLEEQLTNLIQNQPATPEHPEVTSLKSFVEKEQKLISEEDLGGEQKLISEEDLHHHHHH	0
mANGPTL3(17-240)-His (other) GAPSRVDPDLSSFDSAPSEPKSRFAMLDDVKILANGLLQLGHGLKDFVHKTKGQINDIFQKLNIFDQSFYDLSLRTNEIKEEEKELRRTTSTLQVKNEEVKNMSVELNSKLESLLEEKTALQHKVRALEEQLTNLILSPAGAQEHPEVTSLKSFVEQQDNSIRELLQSVEEQYKQLSQQHMQIKEIEKQLRKTGIQEPSENSLSSKSRAPRTTPPLQLNETENTEQDASHHHHHH	0
hANGPTL3(17-169)-mFc (Fc fusion) SRIDQDNSSFDSLSPEPKSRFAMLDDVKILANGLLQLGHGLKDFVHKTKGQINDIFQKLNIFDQSFYDLSLQTSEIKEEEKELRRTTYKLQVKNEEVKNMSLELNSKLESLLEEKILLQQKVKYLEEQLTNLIQNQPETPEHPEVTSLKTFVEEPRGPTIKPCPPCKCPAPNLLGGPSVFIFPPKIKDVLMISLSPIVTCVVVDVSEDDPDVQISWFVNNVEVHTAQTQTHREDYNSTLRVVSALPIQHQDWMSGKEFKCKVNNKDLPAPIERTISKPKGSVRAPQVYVLPPPEEEMTKKQVTLTCMVTDFMPEDIYVEWTNNGKTELNYKNTEPVLDSDGSYFMYSKLRVEKKNWVERNSYSCSVVHEGLHNHHTTKSFSRTPGK	1
hANGPTL4(26-148)-mFc (Fc fusion) GPVQSKSPRFASWDEMNVLAHGLLQLGQGLREHAERTRSQLSALERRLSACGSACQGTEGSTDLPLAPESRVDPEVLHSLQTQLKAQNSRIQQLFHKVAQQQRHLEKQHLRIQHLQSQFGLLDEPRGPTIKPCPPCKCPAPNLLGGPSVFIFPPKIKDVLMISLSPIVTCVVVDVSEDDPDVQISWFVNNVEVHTAQTQTHREDYNSTLRVVSALPIQHQDWMSGKEFKCKVNNKDLPAPIERTISKPKGSVRAPQVYVLPPPEEEMTKKQVTLTCMVTDFMPEDIYVEWTNNGKTELNYKNTEPVLDSDGSYFMYSKLRVEKKNWVERNSYSCSVVHEGLHNHHTTKSFSRTPGK	1
